The values you see were collected from ChEMBL document CHEMBL1141971.

Below are log10 IC50 values measured for Glycogen synthase kinase-3 beta (Homo sapiens, UniProt P49841).
measured.quantity: log10 IC50 (log10 of the value in µM)

>>> print(df.to_string())
                                   compound                               target_desc  measured_quantity  assay_result
0  N[C@H]1CC[C@H](Nc2cc(Nc3ccc(S(=O)(=O)c4ccccc4)cc3)n3ncc(Br)c3n2)CC1  Glycogen synthase kinase-3 beta (Homo sapiens, UniProt P49841)         log10 IC50          0.72
1  CC(C)COc1cc(Nc2ccc(S(=O)(=O)N(C)C)cc2)n2ncc(C(C)C)c2n1  Glycogen synthase kinase-3 beta (Homo sapiens, UniProt P49841)         log10 IC50          1.70
2  CN(C)S(=O)(=O)c1ccc(Nc2cc(N[C@H]3CC[C@H](N)CC3)nc3c(Cl)cnn23)cc1  Glycogen synthase kinase-3 beta (Homo sapiens, UniProt P49841)         log10 IC50          0.71
3  CC(C)COc1cc(Nc2ccc(S(C)(=O)=O)cc2)n2ncc(C(C)C)c2n1  Glycogen synthase kinase-3 beta (Homo sapiens, UniProt P49841)         log10 IC50          1.08
4  CC(C)c1cnn2c(Nc3ccc(S(=O)(=O)N(C)C)cc3)cc(N[C@H]3CC[C@H](N)CC3)nc12  Glycogen synthase kinase-3 beta (Homo sapiens, UniProt P49841)         log10 IC50          1.60
5  CC(C)c1cnn2c(Nc3ccc(S(=O)(=O)N(C)C)cc3)cc(O[C@H]3CC[C@H](N)CC3)nc12  Glycogen synthase kinase-3 beta (Homo sapiens, UniProt P49841)         log10 IC50          1.45
6  CN(C)S(=O)(=O)c1ccc(Nc2cc(N[C@H]3CC[C@H](N)CC3)nc3c(Br)cnn23)cc1Cl  Glycogen synthase kinase-3 beta (Homo sapiens, UniProt P49841)         log10 IC50          0.94
7  CN(C)S(=O)(=O)c1ccc(Nc2cc(N[C@H]3CC[C@H](N)CC3)nc3c(Br)cnn23)cc1  Glycogen synthase kinase-3 beta (Homo sapiens, UniProt P49841)         log10 IC50          0.53
8  CN(C)S(=O)(=O)c1ccc(Nc2cc(N[C@H]3CC[C@H](N)CC3)nc3c(C#N)cnn23)cc1  Glycogen synthase kinase-3 beta (Homo sapiens, UniProt P49841)         log10 IC50         -0.34
